Assay: chemical genetic growth profiling, strain panel (AID 1159580);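 note: tested at 20 µM; growth read once vehicle control cultures reached saturation at 30 °C; 1 = growth at the plate median or of vehicle wells; lower values mean less growth of the strain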
Conditions: S. cerevisiae deletion strains, growth OD, locus YOR265W, strain rbl2, active compounds read low
Screen size: about 5,500 compounds; about 2,000 (36%) were called active. Inconclusive results (about 18%) are left out. The list shows a part of the results.
So I've got a bunch of compounds here, and I need their normalized growth values.
Field format: numeric only.

Would you kindly share the measured normalized growth for COc1ccc2c(c1)[nH]c1c(C)nccc12 ?
0.996

Would you kindly share the measured normalized growth for Cc1ncc([N+](=O)[O-])n1CCO ?
0.985

Would you kindly share the measured normalized growth for Cn1c([N+](=O)[O-])cnc1COC(N)=O ?
1

Would you kindly share the measured normalized growth for CC(=O)OC1CCC23C(=O)OC45CCC(C6=CC(=O)OC6)C4(C)CCC2C5CCC3(O)C1 (stereo not drawn) ?
0.996

Would you kindly share the measured normalized growth for Fc1ccc(C(c2ccc(F)cc2)N2CCN(C/C=C/c3ccccc3)CC2)cc1 ?
0.251

Would you kindly share the measured normalized growth for CCCc1nc(C(C)(C)O)c(C(=O)OCc2oc(=O)oc2C)n1Cc1ccc(-c2ccccc2-c2nn[nH]n2)cc1 ?
0.979

Would you kindly share the measured normalized growth for CN1CCN(C(c2ccccc2)c2ccccc2)CC1 ?
0.98

Would you kindly share the measured normalized growth for CCCCC(=O)N(Cc1ccc(-c2ccccc2-c2nn[nH]n2)cc1)[C@H](C(=O)O)C(C)C ?
0.999

Would you kindly share the measured normalized growth for CC(C(=O)O)c1ccc(N2Cc3ccccc3C2=O)cc1 (stereo not drawn) ?
0.982

Would you kindly share the measured normalized growth for c1ccc2c(c1)[nH]c1cnccc12 ?
0.994

Would you kindly share the measured normalized growth for CCOc1nc2cccc(C(=O)OC(C)OC(=O)OC3CCCCC3)c2n1Cc1ccc(-c2ccccc2-c2nn[nH]n2)cc1 (stereo not drawn) ?
1.02

Would you kindly share the measured normalized growth for CCCC(=O)Nc1ncnc2c1ncn2C1O[C@@H]2COP(=O)(O)O[C@H]2[C@H]1OC(=O)CCC (stereo partly drawn) ?
0.978

Would you kindly share the measured normalized growth for CCCCCN=C(N)N/N=C\c1c[nH]c2ccc(OC)cc12 ?
1.01
